The measured values listed here are drawn from patent US11123398B2.

- System: MCF-7/mdr
- EXPERIMENTAL PROTOCOL: MTS cytotoxicity assay, MCF-7/mdr
- Type: cell-based, human
- CONDITIONS: IC50 resistant / IC50 sensitive line; doxorubicin resistance
Non-standard residues stand in square brackets, D forms with d. Residues, ends and D or L forms follow the SMILES beside them. Bip = N[C@@H](Cc1ccc(-c2ccccc2)cc1)C(=O)O; dBip = N[C@H](Cc1ccc(-c2ccccc2)cc1)C(=O)O; Dip = N[C@H](C(=O)O)C(c1ccccc1)c1ccccc1
Answer each item with its documented Resistance index (RI), MCF-7/mdr.

NCCCC[C@@H](N)C(=O)N[C@H](CCCCN)C(=O)N[C@H](Cc1ccc(-c2ccccc2)cc1)C(=O)N[C@H](Cc1c[nH]c2ccccc12)C(=O)N[C@H](CCCCN)C(=O)N[C@H](CCCCN)C(=O)N[C@H](Cc1c[nH]c2ccccc12)C(=O)N[C@H](Cc1c[nH]c2ccccc12)C(=O)N[C@H](CCCCN)C(N)=O [LTX-329, k-k-bip-w-k-k-w-w-k-NH2] (H-[dK][dK][dBip][dW][dK][dK][dW][dW][dK]-NH2; N-terminus assumed) | 1.07
NCCCC[C@H](NC(=O)[C@H](Cc1c[nH]c2ccccc12)NC(=O)[C@H](Cc1c[nH]c2ccccc12)NC(=O)[C@H](CCCCN)NC(=O)[C@H](CCCCN)NC(=O)[C@H](Cc1c[nH]c2ccccc12)NC(=O)[C@H](Cc1ccc(-c2ccccc2)cc1)NC(=O)[C@H](CCCCN)NC(=O)[C@@H](N)CCCCN)C(N)=O [LTX-313, K-K-Bip-W-K-K-W-W-K-NH2] (H-KK[Bip]WKKWWK-NH2; N-terminus assumed) | 1.24

Exam item: Suppose we examine the molecule NCCCC[C@H](NC(=O)[C@@H](NC(=O)[C@H](Cc1c[nH]c2ccccc12)NC(=O)[C@H](CCCCN)NC(=O)[C@H](CCCCN)NC(=O)[C@H](Cc1c[nH]c2ccccc12)NC(=O)[C@H](Cc1c[nH]c2ccccc12)NC(=O)[C@H](CCCCN)NC(=O)[C@@H](N)CCCCN)C(c1ccccc1)c1ccccc1)C(N)=O [LTX-315, K-K-W-W-K-K-W-Dip-K-NH2] (H-KKWWKKW[Dip]K-NH2) ; what Resistance index (RI), MCF-7/mdr value has been reported?
Marked response: 1.12
